target: monoclonal antibody D32.39; assay: competition binding experiment with radiolabelled tracer peptide on D32.39-coated wells; settings: competition with 33P-labelled tracer LRRASLGGGRRQFKVVT 50 pM; wells coated with D32.39 0.1 μg/mL; 2 hr at 4° C.; IC50 taken as close to Kd
Where a SMILES comes first, the peptide text is derived from it. [ ]: non-standard residue; d: D form.
# pKd per record follows
Recall that pKd is obtained by taking minus log10 of the concentration measured in molar.

molecule | measured.parameter | recorded.result
CC(=O)N[C@@H](CCCCN)C(=O)N[C@@H](CCC(N)=O)C(=O)N[C@@H](Cc1ccccc1)C(=O)N[C@@H](CCCCN)C(=O)N[C@H](C(=O)N[C@H](C(=O)N[C@@H](CCCCN)C(=O)N[C@H](C(=O)O)[C@@H](C)O)[C@@H](C)O)C(C)C [KQFKVTKT] (Ac-KQFKVTKT-OH) | pKd | 6.47
CC(=O)N[C@H](C(=O)N[C@@H](Cc1ccccc1)C(=O)N[C@@H](CCCNC(=N)N)C(=O)N[C@@H](CCC(N)=O)C(=O)N[C@@H](Cc1ccccc1)C(=O)N[C@@H](CCCCN)C(=O)N[C@H](C(=O)N[C@H](C(=O)O)[C@@H](C)O)C(C)C)[C@@H](C)O [TFRQFKVT] (Ac-TFRQFKVT-OH) | pKd | 9.54
CC(=O)N[C@H](C(=O)N[C@@H](Cc1ccccc1)C(=O)N[C@@H](CCCNC(=N)N)C(=O)N[C@@H](C(=O)N[C@@H](Cc1ccccc1)C(=O)N[C@@H](CCCNC(=N)N)C(=O)N[C@H](C(=O)N[C@H](C(=O)O)[C@@H](C)O)C(C)C)C(C)C)[C@@H](C)O [TFRvFRVT] (Ac-TFR[dV]FRVT-OH) | pKd | 5.85
CC(=O)N[C@@H](CCC(N)=O)C(=O)N[C@@H](C(=O)N[C@@H](CCCNC(=N)N)C(=O)N[C@@H](CCC(N)=O)C(=O)N[C@@H](Cc1ccccc1)C(=O)N[C@@H](CCCCN)C(=O)N[C@H](C(=O)N[C@H](C(=O)O)[C@@H](C)O)[C@@H](C)O)C(C)C [QvRQFKTT] (Ac-Q[dV]RQFKTT-OH) | pKd | 7.80

pKd for CC(=O)N[C@H](C(=O)N[C@@H](CCC(N)=O)C(=O)N[C@@H](Cc1ccccc1)C(=O)N[C@@H](CCCCN)C(=O)N[C@H](C(=O)N[C@H](C(=O)N[C@@H](CCCCN)C(=O)N[C@H](C(=O)O)[C@@H](C)O)[C@@H](C)O)C(C)C)[C@@H](C)O [TQFKVTKT] (Ac-TQFKVTKT-OH) ?
6.25

Cited source for all entries: patent US5639603A
